study_system: Cytochrome P450 1A2 (Homo sapiens) (UniProt P05177)
Sequence (P05177 whole entry, looked up): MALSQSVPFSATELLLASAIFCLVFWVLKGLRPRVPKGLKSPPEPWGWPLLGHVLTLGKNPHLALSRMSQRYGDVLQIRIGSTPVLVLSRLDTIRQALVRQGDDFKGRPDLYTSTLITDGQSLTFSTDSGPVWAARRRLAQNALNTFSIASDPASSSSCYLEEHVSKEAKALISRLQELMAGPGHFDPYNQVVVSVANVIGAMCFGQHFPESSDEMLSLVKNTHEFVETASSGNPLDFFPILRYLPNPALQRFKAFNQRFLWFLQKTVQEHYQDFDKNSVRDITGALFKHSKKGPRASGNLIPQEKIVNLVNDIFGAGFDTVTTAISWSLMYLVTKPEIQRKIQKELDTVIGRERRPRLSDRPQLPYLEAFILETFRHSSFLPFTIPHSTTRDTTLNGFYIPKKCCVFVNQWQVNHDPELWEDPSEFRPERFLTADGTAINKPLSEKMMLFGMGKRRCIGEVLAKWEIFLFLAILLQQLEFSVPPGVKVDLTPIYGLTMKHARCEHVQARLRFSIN
protocol_text: p450-cyp1a2 (AID 410)
recorded_conditions: recombinant CYP1A2, luciferin-ME demethylation, luminescence; series mostly up to 57 µM
Inconclusive results are not listed. The source made the active and inactive calls. Calls follow the shape of the full dose curve.
Labels: TRUE for active, FALSE for inactive

# molecular_string, label
records = [
    ("COc1ccc(C(=O)N2CCC[C@@]3(CCN(C(=O)NC(C)C)C3)C2)cc1", "TRUE"),
    ("COCCNc1ncnc2ccc(-c3ccccc3CN(C)C)cc12", "TRUE"),
    ("COc1ccc([C@H]2Sc3ccccc3N(CCN(C)C)C(=O)[C@H]2OC(C)=O)cc1", "FALSE"),
    ("COc1ccc(NC(=O)N2CCCC3(CCN(S(=O)(=O)c4ccccc4)CC3)C2)cc1", "FALSE"),
    ("CC(=O)NCCNc1nc(-c2ccc(C(=O)N(C)C)cc2)nc2ccccc12", "FALSE"),
    ("CN(C)C(=O)c1ccc(-c2cncnc2Nc2ccccc2)cc1", "TRUE"),
    ("c1ccc(-c2ccc(N3CC[C@@]4(CCCNC4)C3)cc2)cc1", "TRUE"),
    ("COc1ccc2[nH]cc(CCNc3ccnc(-c4cccnc4)n3)c2c1", "TRUE"),
    ("CC(C)CN1CCC2(CC1)CCN(C(=O)c1cnccn1)CC2", "FALSE"),
    ("c1csc(CNc2ccnc(-c3ccc4c(c3)OCO4)n2)c1", "TRUE"),
    ("COc1cccc(Nc2ncc3nc(C)c(=O)n(-c4ccccc4)c3n2)c1", "TRUE"),
    ("CS(=O)(=O)Nc1cccc(-c2cc(NCc3cccs3)ncn2)c1", "TRUE"),
    ("N#CCCn1c(=O)cnc2cnc(N3CCNCC3)nc21", "TRUE"),
    ("COCC(=O)N1CCC2(CCCN(C(=O)Nc3ccccc3)C2)CC1", "FALSE"),
    ("COc1ncc2nc(C)c(=O)n(-c3ccccc3)c2n1", "TRUE"),
    ("Clc1ccccc1-c1cc(NCc2cccnc2)ncn1", "TRUE"),
    ("CN(C)C(=O)c1ccc(-c2ccc3ncnc(NCc4ccccc4)c3c2)cc1", "TRUE"),
    ("CC(=O)N1CCC2(CCCN(c3ncccn3)C2)CC1", "FALSE"),
    ("CN(C)c1nc(-c2cccnc2)nc2ccccc12", "TRUE"),
    ("O=C(c1cccc(F)c1)N1CCC2(CC1)CCN(c1ccc(-c3ccccc3)cc1)CC2", "FALSE"),
    ("O=C(c1ccco1)N1CCC2(CCCN(Cc3ccncc3)C2)CC1", "TRUE"),
    ("COc1cccc(Nc2ncc3nc(CCc4ccccc4)c(=O)n(Cc4cccs4)c3n2)c1", "TRUE"),
    ("c1ccc2c(Nc3ccncc3)nc(-c3ccoc3)nc2c1", "TRUE"),
]

###

System: FAB9
protocol_text: qHTS profiling for inhibitors of Plasmodium falciparum proliferation (AID 504749); also: nearly all actives have a fitted effect of over 60% in size
recorded_conditions: P. falciparum in erythrocytes, SYBR Green DNA, 72 h; series mostly up to 12.8 µM
Results filed as inconclusive are left out. The source made the active and inactive calls. The call rests on the fitted dose curve; in most records, active means well fitted inhibition curve with a large enough effect; inconclusive means small, poorly fitted or top-dose-only effect; inactive means flat fitted curve, though single readings scatter.
Labels: active, inactive

# molecule, label
measured = [
    ("CCCN[C@@H](C)C(=O)Nc1c(C)csc1C(=O)OC", "inactive"),
    ("NC(N)=NC[C@@H]1COC2(CCCCC2)O1", "inactive"),
    ("CCN[C@@H]1C[C@H](C)S(=O)(=O)c2sc(S(N)(=O)=O)cc21", "inactive"),
    ("C[C@@H]1c2cccc(O)c2C(O)=C2C(=O)[C@@]3(O)C(O)=C(C(N)=O)C(=O)[C@@H](N(C)C)[C@@H]3[C@@H](O)[C@@H]21", "inactive"),
    ("O=c1[nH]c(=O)n([C@@H]2C[C@H](O)[C@H](CO)O2)cc1I", "inactive"),
    ("Cn1c(=O)c2c(ncn2C[C@@H](O)CO)n(C)c1=O", "inactive"),
    ("O=C(c1ccccc1)c1ccc2n1CC[C@H]2C(=O)O", "inactive"),
    ("CC1(C)O[C@@H]2C[C@H]3[C@H]4C[C@H](F)C5=CC(=O)C=C[C@@]5(C)[C@@H]4[C@H](O)C[C@]3(C)[C@]2(C(=O)CO)O1", "inactive"),
    ("C[n+]1ccccc1/C=N\\O", "inactive"),
    ("CC(C)N1CCN(c2ccc(OC[C@@H]3CO[C@@](Cn4cncn4)(c4ccc(Cl)cc4Cl)O3)cc2)CC1", "inactive"),
    ("C[C@@H](CN(C)C)CN1c2ccccc2CCc2ccccc21", "inactive"),
    ("NC(=O)c1cc[n+](CC2=C(C(=O)O)N3C(=O)[C@@H](NC(=O)[C@H](c4ccccc4)S(=O)(=O)[O-])[C@@H]3SC2)cc1", "active"),
    ("O=C(Cc1cccs1)NC1C(=O)N2C(C(=O)[O-])=C(C[n+]3ccccc3)CSC12 (stereo not given)", "inactive"),
    ("C/C=C\\C(=O)N(CC)c1ccccc1C", "inactive"),
    ("C[C@@H]1CCC[C@H](C)N1NC(=O)c1ccc(Cl)c(S(N)(=O)=O)c1", "inactive"),
    ("CCC[C@H]1C(=O)N2C(N(C)C)=Nc3ccc(C)cc3N2C1=O", "inactive"),
    ("CC(C)NC[C@H](O)c1cc(O)cc(O)c1", "inactive"),
    ("C[C@H](NCCc1ccc(O)cc1)[C@@H](O)c1ccc(O)cc1", "inactive"),
    ("COc1ccccc1OC[C@H](O)COC(N)=O", "inactive"),
    ("O=C(O)/C=C\\c1ccc(Cn2ccnc2)cc1", "inactive"),
]
